# Assay details: Permeability in MDCK-MDR1 cells across basolateral to apical side at 5 uM incubated for 90 mins by LC-MS/MS analysis
# Type: ADME, cell-based, Canis lupus familiaris
# Conditions: dog, read-out: permeability
Measured parameter: Papp B→A at 1.5 h, 5 µM (×10⁻⁶ cm/s)

Smiles string: Nc1ncc(-c2cn(C34CC(F)(C3)C4)c([C@@H](O)C(F)(F)F)n2)cc1OC(F)(F)F
Measured parameter: Papp B→A at 1.5 h, 5 µM
Measurement unit: ×10⁻⁶ cm/s
Result value: 43

====

# Assay details: Metabolic stability in human liver microsomes assessed as intrinsic clearance at 1 uM in presence of NADPH regenerating system measured for 45 mins by LC-MS/MS analysis
# Format: ADME, Microsome
# Conditions: read-out: CLH
Measured parameter: log10 of CLint scaled at 1 µM (log10 of the value in mL/min/kg)

Smiles string: CC(C)c1nc(-c2cnc(N)c(OC(F)(F)F)c2)cn1C12CC(N3CCOCC3)(C1)C2
log10 of CLint scaled at 1 µM: 0.95

Smiles string: CC(C)c1nc(-c2cnc(N)c(C(F)(F)F)c2)cn1C12CC(N3CCOCC3)(C1)C2
log10 of CLint scaled at 1 µM: 0.85

Smiles string: CC(C)(C)Cc1nc(-c2cnc(N)c(C(F)(F)F)c2)cn1C12CC(N3CCOCC3)(C1)C2
log10 of CLint scaled at 1 µM: 1.15

Smiles string: CC(C)c1nc(-c2cnc(N)c(C(F)(F)F)c2)cn1C12CC(C1)C2
log10 of CLint scaled at 1 µM: 2.23

Smiles string: CC(C)Cc1nc(-c2cnc(N)c(C(F)(F)F)c2)cn1C12CC(N3CCOCC3)(C1)C2
log10 of CLint scaled at 1 µM: 0.95

Smiles string: Nc1ncc(-c2cn(C34CC(N5CCOCC5)(C3)C4)c(CC3CC3)n2)cc1C(F)(F)F
log10 of CLint scaled at 1 µM: 0.78

Smiles string: CC(C)[C@H](O)c1nc(-c2cnc(N)c(OC(F)(F)F)c2)cn1C12CC(N3CCOCC3)(C1)C2
log10 of CLint scaled at 1 µM: 1.34

Smiles string: CC(C)c1nc(-c2cnc(N)c(C(F)(F)F)c2)cn1C1CCCC1
log10 of CLint scaled at 1 µM: 2.56

Smiles string: Nc1ncc(-c2cn(C34CC(N5CCOCC5)(C3)C4)c(C3CC3)n2)cc1OC(F)(F)F
log10 of CLint scaled at 1 µM: 0.30
